Origin of the recorded values: paper PMC12652692

Below are molecules with their GI50 as measured on NCI-H226.

{"molecule": "Cc1ccccc1[P+](CCCCOc1cc(O)c2c(=O)cc(-c3ccccc3)oc2c1)(c1ccccc1C)c1ccccc1C [3g]", "testTarget": "NCI-H226", "GI50 [µM]": 0.399}
{"molecule": "O=c1cc(-c2ccccc2)oc2cc(OCCCC[P+](c3ccccc3)(c3ccccc3)c3ccccn3)cc(O)c12 [3h]", "testTarget": "NCI-H226", "GI50 [µM]": 1.56}
{"molecule": "COc1ccc([P+](CCCCOc2cc(O)c3c(=O)cc(-c4ccccc4)oc3c2)(c2ccc(OC)cc2)c2ccc(OC)cc2)cc1 [3c]", "testTarget": "NCI-H226", "GI50 [µM]": 0.606}
{"molecule": "Cc1ccc([P+](CCCCOc2cc(O)c3c(=O)cc(-c4ccccc4)oc3c2)(c2ccc(C)cc2)c2ccc(C)cc2)cc1 [3b]", "testTarget": "NCI-H226", "GI50 [µM]": 0.277}
{"molecule": "O=c1cc(-c2ccccc2)oc2cc(OCCCC[P+](C3CCCCC3)(C3CCCCC3)C3CCCCC3)cc(O)c12 [3e]", "testTarget": "NCI-H226", "GI50 [µM]": 1.1}
{"molecule": "O=c1cc(-c2ccccc2)oc2cc(OCCCC[P+](c3ccccc3)(c3ccccc3)c3ccccc3)cc(O)c12 [3a]", "testTarget": "NCI-H226", "GI50 [µM]": 0.354}
{"molecule": "COc1c(C)cc([P+](CCCCOc2cc(O)c3c(=O)cc(-c4ccccc4)oc3c2)(c2cc(C)c(OC)c(C)c2)c2cc(C)c(OC)c(C)c2)cc1C [3f]", "testTarget": "NCI-H226", "GI50 [µM]": 0.249}
{"molecule": "O=c1cc(-c2ccccc2)oc2cc(OCCCC[P+](c3ccc(F)cc3)(c3ccc(F)cc3)c3ccc(F)cc3)cc(O)c12 [3d]", "testTarget": "NCI-H226", "GI50 [µM]": 1.82}
